target_or_system: T1, 2PT-NBD1 (human CFTR nucleotide-binding domain 1, residues 387-646, with S492P, A534P, I539T) (human, UniProt P13569 388-646, biotinylated for the ELISA (sites not given))
T1 construct: N-terminal His6-SUMO tag removed with Ulp1; In the T2a-T4 and T27 crystals the domain was cut by papain or subtilisin
T1 sequence (P13569 388-646 V470M/S492P/A534P/I539T limits assumed): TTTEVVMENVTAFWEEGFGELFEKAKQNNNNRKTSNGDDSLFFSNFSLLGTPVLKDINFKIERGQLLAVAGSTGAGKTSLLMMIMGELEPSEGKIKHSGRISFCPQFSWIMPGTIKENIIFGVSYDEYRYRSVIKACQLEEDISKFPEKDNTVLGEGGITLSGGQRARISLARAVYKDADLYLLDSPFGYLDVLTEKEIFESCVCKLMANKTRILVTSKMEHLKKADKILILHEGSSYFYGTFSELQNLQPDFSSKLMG
assay_notes: ITC, nanobody titrated into 2PT-NBD1 at 20 °C, one-site model

[
  {
    "binder": "Nanobody G3a (VHH, not shown: small tags and cut ends, Llama nanobody, non-stabilizing; also called Nb G3a; G3a Nb) VHH: QVQLQESGGGLVQAGGSLRLSCTASGRAFSWYVMGWFRQAPGKEREFVATVSGNGSRRDYADSVKGRFTISRDNAKNTVYLQMNSLKPEDTAVYYCAASSTYYYTDPEKYDYWGQGTQVTVSS",
    "measure_unit": "kcal/mol",
    "ΔH": -11.4
  },
  {
    "binder": "Nanobody T27 (VHH, not shown: small tags and cut ends, Llama nanobody; also called NbT27; T27 Nb) VHH: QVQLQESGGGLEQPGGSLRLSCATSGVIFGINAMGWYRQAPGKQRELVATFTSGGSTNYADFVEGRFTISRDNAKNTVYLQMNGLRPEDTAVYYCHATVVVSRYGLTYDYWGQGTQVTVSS",
    "measure_unit": "kcal/mol",
    "ΔH": -12.1
  },
  {
    "binder": "Nanobody T2a (VHH, not shown: small tags and cut ends, Llama nanobody; also called Nb T2a; T2a Nb) VHH: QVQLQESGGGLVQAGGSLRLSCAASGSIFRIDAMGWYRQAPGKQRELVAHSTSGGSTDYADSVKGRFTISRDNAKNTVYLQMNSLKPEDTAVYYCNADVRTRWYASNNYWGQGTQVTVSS",
    "measure_unit": "kcal/mol",
    "ΔH": -13.8
  },
  {
    "binder": "Nanobody T8 (VHH, not shown: small tags and cut ends, Llama nanobody; also called Nb T8; T8 Nb) VHH: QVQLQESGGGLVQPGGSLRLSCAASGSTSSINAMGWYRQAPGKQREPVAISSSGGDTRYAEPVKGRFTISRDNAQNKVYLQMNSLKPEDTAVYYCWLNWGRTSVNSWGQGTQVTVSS",
    "measure_unit": "kcal/mol",
    "ΔH": -15.5
  }
]
